EXPERIMENTAL_TARGET: SAE (Homo sapiens (Human))
RUN_DESCRIPTION: In vitro inhibitory activity assay against SAE (SUMO-2/3 immunofluorescence in HCT116 cells)
Format: cell-based
REPORTED_CONDITIONS: 6 h incubation, numeric values, read-out: SUMO IF IC50
METRIC_NAME: pIC50
Recall that pIC50 is obtained by taking minus log10 of the concentration measured in molar.

Known results for molecules:
molecule="C=CCN1Cc2sc(C(=O)c3cncnc3N[C@@H]3C[C@H](COS(N)(=O)=O)[C@@H](O)C3)cc2[C@]2(C1)NCCc1ccc(Cl)cc12 [Compound 192]" experimental_target="SAE (Homo sapiens (Human))" quantitative_result=7.60
molecule="NS(=O)(=O)OC[C@H]1C[C@@H](Nc2ncncc2C(=O)c2cc3c(s2)CN(C2CC2)C[C@]32NCCc3ccc(Cl)cc32)C[C@@H]1O [Compound 117]" experimental_target="SAE (Homo sapiens (Human))" quantitative_result=7.72

INPUT: Need pIC50, item NS(=O)(=O)OC[C@H]1C[C@@H](Nc2ncncc2C(=O)c2cc3c(s2)CCC[C@]32NCCc3ccc(F)cc32)C[C@@H]1O [Compound 9]
OUTPUT: 7.44

###

EXPERIMENTAL_TARGET: UniProt:Q9UBT2
RUN_DESCRIPTION: In vitro inhibitory activity assay against SAE (SUMO-2/3 immunofluorescence in HCT116 cells)
Format: cell-based
REPORTED_CONDITIONS: 6 h incubation, class symbols, read-out: SUMO IF IC50
pIC50: −log10 of the molar value.
Here the recorded pIC50 is given for each entry.

Known results for compounds:
compound=NS(=O)(=O)OC[C@H]1C[C@@H](Nc2ncncc2C(=O)c2cc3c(s2)COC[C@@]32NCCc3cc(F)c(Cl)cc32)C[C@@H]1O result="< 6.70"
compound=NS(=O)(=O)OC[C@H]1C[C@@H](Nc2ncncc2C(=O)c2cc3c(s2)CC[C@@]32OCCc3ccccc32)C[C@@H]1O result="< 6.70"

Shifting focus to the compound that follows.
INPUT: What pIC50 appears in the records for this compound with UniProt:Q9UBT2? NS(=O)(=O)OC[C@H]1C[C@@H](Nc2ncncc2C(=O)c2cc3c(s2)COCC32NCCc3c(Cl)cc(Cl)cc32)C[C@@H]1O (stereo partly drawn)
OUTPUT: 6.70 to 7.30

###

Here the recorded pIC50 is given for each entry.
EXPERIMENTAL_TARGET: SAE (Homo sapiens (Human), UniProt Q9UBT2)
Sequence (Q9UBT2 whole entry): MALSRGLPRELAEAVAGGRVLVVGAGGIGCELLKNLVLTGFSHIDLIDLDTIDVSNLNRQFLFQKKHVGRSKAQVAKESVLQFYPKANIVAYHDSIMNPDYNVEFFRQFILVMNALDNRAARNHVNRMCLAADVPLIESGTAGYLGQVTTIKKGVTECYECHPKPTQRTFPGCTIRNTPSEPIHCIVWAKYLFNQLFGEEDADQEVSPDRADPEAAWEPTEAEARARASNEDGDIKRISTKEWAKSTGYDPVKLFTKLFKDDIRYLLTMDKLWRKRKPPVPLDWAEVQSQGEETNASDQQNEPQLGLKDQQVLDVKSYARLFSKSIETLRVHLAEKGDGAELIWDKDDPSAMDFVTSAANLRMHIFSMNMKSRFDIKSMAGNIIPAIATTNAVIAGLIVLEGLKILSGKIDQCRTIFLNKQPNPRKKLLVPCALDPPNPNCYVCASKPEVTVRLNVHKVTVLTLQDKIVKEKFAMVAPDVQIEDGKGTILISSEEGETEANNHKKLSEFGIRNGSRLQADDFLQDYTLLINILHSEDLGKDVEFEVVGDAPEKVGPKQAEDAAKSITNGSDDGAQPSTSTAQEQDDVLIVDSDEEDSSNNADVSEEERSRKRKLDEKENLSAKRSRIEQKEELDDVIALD
Sequence (Q9UBE0 whole entry partner): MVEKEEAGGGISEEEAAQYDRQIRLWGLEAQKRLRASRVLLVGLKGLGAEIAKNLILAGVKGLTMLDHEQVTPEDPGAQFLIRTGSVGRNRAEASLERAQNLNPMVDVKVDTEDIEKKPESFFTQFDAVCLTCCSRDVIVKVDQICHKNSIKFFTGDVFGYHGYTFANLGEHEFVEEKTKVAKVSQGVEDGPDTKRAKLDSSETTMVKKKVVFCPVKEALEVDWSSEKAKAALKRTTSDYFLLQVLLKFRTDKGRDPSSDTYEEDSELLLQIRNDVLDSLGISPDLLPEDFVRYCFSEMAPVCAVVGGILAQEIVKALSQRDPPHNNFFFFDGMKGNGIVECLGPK
RUN_DESCRIPTION: In vitro inhibitory activity assay against SAE (SUMO-2/3 immunofluorescence in HCT116 cells)
Assay type: cell-based
REPORTED_CONDITIONS: 6 h incubation, class symbols, read-out: SUMO IF IC50
pIC50: −log10 of the molar value.

Known results for molecules:
molecule=NS(=O)(=O)OC[C@H]1C[C@@H](Nc2ncncc2C(=O)c2cc3c(s2)CC[C@]32NCCc3cc(Cl)ncc32)C[C@@H]1O result="6.70 to 7.30"
molecule="NS(=O)(=O)OC[C@H]1C[C@@H](Nc2ncncc2C(=O)c2cc3c(s2)CCCC32NCCc3cc(F)c(Cl)c(F)c32)C[C@@H]1O (stereo partly drawn)" result="6.70 to 7.30"
molecule="N#Cc1cc2c(cc1Cl)C1(CCc3sc(C(=O)c4cncnc4N[C@@H]4C[C@H](COS(N)(=O)=O)[C@@H](O)C4)cc31)NCC2 (stereo partly drawn)" result="6.70 to 7.30"
molecule="CCN1Cc2sc(C(=O)c3cncnc3N[C@@H]3C[C@H](COS(N)(=O)=O)[C@@H](O)C3)cc2C2(C1)NCCc1ccc(Cl)cc12 (stereo partly drawn)" result="≥ 7.30"
molecule="NS(=O)(=O)OC[C@H]1C[C@@H](Nc2ncncc2C(=O)c2cc3c(s2)C=CC32OCCc3ccc(Cl)cc32)C[C@@H]1O (stereo partly drawn)" result="≥ 7.30"

Shifting focus to the molecule that follows.
INPUT: Need pIC50, item NS(=O)(=O)OC[C@H]1C[C@@H](Nc2ncncc2C(=O)c2cc3c(s2)C(F)=CC32NCCc3ccc(Cl)cc32)C[C@@H]1O (stereo partly drawn)
OUTPUT: ≥ 7.30
